Cited source for all entries: the OligoGym collection

condition label: siRNA; note: test system not given here
HELM strings list units from the 5' end as sugar, base in round brackets, then linkage (d deoxyribose, r ribose, m 2'-O-methyl, p phosphodiester). Strings are as the collection lists them, not checked against the first reports. ss, as = sense and antisense strand; [una] = unlocked nucleic acid; [s4r] = 4'-thioribose; [fl2r] = 2'-fluoro
Values of target mRNA knockdown strictly less than 70% map to rule met, and values of at least 70% map to rule not met.

{"columns": ["substance", "group"],
 "data": [
  ["RNA1{r(A)p.m(U)p.m(C)p.r(G)p.r(A)p.m(C)p.m(C)p.m(U)p.r(G)p.r(A)p.r(A)p.r(G)p.r(G)p.r(A)p.r(G)p.m(U)p.r(A)p.m(C)p.r(G)p.r(T)p.r(T)}|RNA2{m(C)p.r(G)p.m(U)p.r(A)p.m(C)p.m(U)p.m(C)p.m(C)p.m(U)p.m(U)p.m(C)p.r(A)p.r(G)p.r(G)p.m(U)p.m(C)p.r(G)p.r(A)p.m(U)p.r(T)p.r(T)}$$$RNA1{StrandType:ss}|RNA2{StrandType:as}$", "rule met"],
  ["RNA1{r(G)p.r(G)p.r(A)p.r(G)p.r(C)p.m(U)p.m(A)p.r(G)p.r(A)p.r(C)p.r(G)p.r(G)p.r(G)p.m(U)p.r(A)p.r(C)p.r(G)p.r(A)p.r(G)p.r(T)p.r(T)}|RNA2{r(C)p.r(U)p.r(C)p.r(G)p.r(U)p.r(A)p.r(C)p.r(C)p.r(C)p.r(G)p.r(U)p.r(C)p.m(U)p.r(A)p.r(G)p.r(C)p.r(U)p.r(C)p.r(C)p.r(T)p.r(T)}$$$RNA1{StrandType:ss}|RNA2{StrandType:as}$", "rule not met"],
  ["RNA1{m(G)p.r(A)p.m(G)p.r(A)p.m(G)p.r(A)p.m(G)p.r(A)p.m(C)p.r(G)p.m(G)p.r(U)p.m(G)p.r(G)p.m(A)p.r(A)p.m(G)p.r(A)p.m(A)p.r(T)p.r(T)}|RNA2{r(U)p.r(U)p.r(C)p.r(U)p.r(U)p.r(C)p.r(C)p.r(A)p.r(C)p.r(C)p.m(G)p.r(U)p.r(C)p.r(U)p.r(C)p.r(U)p.r(C)p.r(U)p.r(C)p.r(T)p.r(T)}$$$RNA1{StrandType:ss}|RNA2{StrandType:as}$", "rule met"],
  ["RNA1{[s4r](C)p.r(G)p.[s4r](U)p.r(A)p.[s4r](C)p.r(G)p.[s4r](C)p.r(G)p.r(G)p.r(A)p.r(A)p.[s4r](U)p.r(A)p.[s4r](C)p.[s4r](U)p.[s4r](U)p.[s4r](C)p.r(G)p.r(A)p.r(T)p.r(T)}|RNA2{r(U)p.r(C)p.r(G)p.r(A)p.r(A)p.r(G)p.r(U)p.r(A)p.r(U)p.r(U)p.r(C)p.r(C)p.r(G)p.r(C)p.r(G)p.r(U)p.r(A)p.r(C)p.r(G)p.r(T)p.r(T)}$$$RNA1{StrandType:ss}|RNA2{StrandType:as}$", "rule not met"],
  ["RNA1{r(C)p.r(C)p.r(C)p.r(U)p.r(C)p.r(C)p.r(C)p.r(C)p.[fl2r](U)p.r(G)p.r(U)p.r(C)p.r(C)p.r(C)p.r(C)p.r(G)p.r(C)p.r(U)p.r(U)p.r(T)p.r(T)}|RNA2{r(A)p.r(A)p.r(G)p.r(C)p.r(G)p.r(G)p.r(G)p.r(G)p.r(A)p.r(C)p.r(A)p.r(G)p.r(G)p.r(G)p.r(G)p.r(A)p.r(G)p.r(G)p.r(G)p.r(T)p.r(T)}$$$RNA1{StrandType:ss}|RNA2{StrandType:as}$", "rule not met"],
  ["RNA1{r(G)p.r(G)p.r(A)p.r(C)p.r(A)p.r(U)p.r(U)p.r(C)p.r(A)p.r(G)p.r(A)p.r(A)p.r(C)p.r(A)p.r(A)p.r(G)p.r(A)p.r(A)p.r(A)p.[una](U)p.[una](U)}|RNA2{r(U)p.[una](U)p.r(U)p.r(C)p.r(U)p.r(U)p.r(G)p.r(U)p.r(U)p.r(C)p.r(U)p.r(G)p.r(A)p.r(A)p.r(U)p.r(G)p.r(U)p.r(C)p.r(C)p.[una](U)p.[una](U)}$$$RNA1{StrandType:ss}|RNA2{StrandType:as}$", "rule met"]
]}

* * *

condition label: siRNA
HELM strings list units from the 5' end as sugar, base in round brackets, then linkage (d deoxyribose, r ribose, m 2'-O-methyl, p phosphodiester). Strings are as the collection lists them, not checked against the first reports. ss, as = sense and antisense strand; [lna] = locked nucleic acid (LNA); [fl2r] = 2'-fluoro

{"columns": ["substance", "unit", "target mRNA knockdown"],
 "data": [
  ["RNA1{m(U)p.r(A)p.r(C)p.r(C)p.r(G)p.r(A)p.r(G)p.r(A)p.r(A)p.m(U)p.r(G)p.r(A)p.r(G)p.r(C)p.r(C)p.m(U)p.r(G)p.r(A)p.r(U)p.r(T)p.r(T)}|RNA2{r(A)p.r(U)p.m(C)p.r(A)p.r(G)p.r(G)p.r(C)p.r(U)p.m(C)p.r(A)p.r(U)p.r(U)p.r(C)p.r(U)p.r(C)p.r(G)p.r(G)p.m(U)p.r(A)p.r(T)p.r(T)}$$$RNA1{StrandType:ss}|RNA2{StrandType:as}$", "%", 54],
  ["RNA1{r(C)p.r(U)p.r(U)p.r(A)p.r(C)p.r(G)p.r(C)p.r(U)p.r(G)p.r(A)p.r(G)p.r(U)p.r(A)p.r(C)p.r(U)p.r(U)p.r(C)p.r(G)p.r(A)p.r(T)p.r(T)}|RNA2{r(U)p.r(C)p.r(G)p.[lna](A)p.r(A)p.r(G)p.r(U)p.r(A)p.r(C)p.r(U)p.r(C)p.r(A)p.r(G)p.r(C)p.r(G)p.r(U)p.r(A)p.r(A)p.r(G)p.r(T)p.r(T)}$$$RNA1{StrandType:ss}|RNA2{StrandType:as}$", "%", 85],
  ["RNA1{r(G)p.r(C)p.[fl2r](U)p.r(A)p.r(C)p.r(C)p.r(G)p.[fl2r](C)p.r(A)p.r(A)p.r(C)p.[fl2r](C)p.r(A)p.r(C)p.r(G)p.r(A)p.r(G)p.r(C)p.r(U)p.r(T)p.r(T)}|RNA2{r(A)p.r(G)p.r(C)p.r(U)p.r(C)p.r(G)p.[fl2r](U)p.r(G)p.r(G)p.r(U)p.[fl2r](U)p.r(G)p.r(C)p.r(G)p.r(G)p.[fl2r](U)p.r(A)p.r(G)p.r(C)p.r(T)p.r(T)}$$$RNA1{StrandType:ss}|RNA2{StrandType:as}$", "%", 42],
  ["RNA1{r(A)p.r(G)p.m(A)p.r(G)p.r(A)p.r(G)p.r(G)p.m(U)p.r(G)p.r(G)p.r(A)p.r(G)p.r(G)p.m(U)p.r(A)p.r(U)p.r(C)p.r(U)p.r(C)p.r(T)p.r(T)}|RNA2{r(G)p.r(A)p.r(G)p.r(A)p.m(U)p.r(A)p.r(C)p.r(C)p.r(U)p.r(C)p.m(C)p.r(A)p.r(C)p.r(C)p.r(U)p.m(C)p.r(U)p.r(C)p.r(U)p.r(T)p.r(T)}$$$RNA1{StrandType:ss}|RNA2{StrandType:as}$", "%", 87],
  ["RNA1{r(G)p.r(C)p.r(A)p.r(G)p.r(C)p.r(A)p.r(C)p.r(G)p.r(A)p.r(C)p.r(U)p.r(U)p.r(C)p.r(U)p.r(U)p.r(C)p.r(A)p.r(A)p.r(G)p.r(U)p.r(U)}|RNA2{r(C)p.m(U)p.r(U)p.r(G)p.r(A)p.r(A)p.r(G)p.r(A)p.r(A)p.r(G)p.r(U)p.r(C)p.r(G)p.r(U)p.r(G)p.r(C)p.r(U)p.r(G)p.r(C)p.r(U)p.r(U)}$$$RNA1{StrandType:ss}|RNA2{StrandType:as}$", "%", 71.7]
]}

* * *

condition label: siRNA
HELM strings list units from the 5' end as sugar, base in round brackets, then linkage (d deoxyribose, r ribose, m 2'-O-methyl, p phosphodiester). Strings are as the collection lists them, not checked against the first reports. ss, as = sense and antisense strand; [lna] = locked nucleic acid (LNA); [hna] = hexitol nucleic acid

{"columns": ["substance", "unit", "target mRNA knockdown"],
 "data": [
  ["RNA1{r(G)p.r(A)p.r(C)p.r(G)p.[hna](U)p.r(A)p.r(A)p.[hna](A)p.r(C)p.r(G)p.[hna](G)p.r(C)p.r(C)p.[hna](A)p.r(C)p.r(A)p.r(A)p.r(G)p.r(U)p.r(U)p.d(T)}|RNA2{r(A)p.r(C)p.r(U)p.r(U)p.r(G)p.r(U)p.r(G)p.r(G)p.r(C)p.r(C)p.r(G)p.r(U)p.r(U)p.r(U)p.r(A)p.r(C)p.r(G)p.r(U)p.[lna](C)p.[lna](G)p.r(C)}$$$RNA1{StrandType:ss}|RNA2{StrandType:as}$", "%", 77.3],
  ["RNA1{r(G)p.r(C)p.r(G)p.r(C)p.r(U)p.r(G)p.r(C)p.r(U)p.r(G)p.r(G)p.r(U)p.r(G)p.r(C)p.r(C)p.r(A)p.r(A)p.r(C)p.r(C)p.r(C)p.d(T)p.d(T)}|RNA2{r(G)p.r(G)p.r(G)p.r(U)p.r(U)p.r(G)p.r(G)p.r(C)p.r(A)p.r(C)p.r(C)p.r(A)p.r(G)p.r(C)p.r(A)p.r(G)p.r(C)p.r(G)p.r(C)p.d(T)p.d(T)}$$$RNA1{StrandType:ss}|RNA2{StrandType:as}$", "%", 74],
  ["RNA1{r(G)p.r(A)p.r(A)p.m(U)p.r(A)p.r(A)p.r(C)p.r(C)p.r(U)p.r(G)p.r(A)p.r(A)p.r(C)p.r(G)p.r(U)p.r(C)p.r(A)p.r(C)p.r(C)p.r(T)p.r(T)}|RNA2{r(G)p.r(G)p.r(U)p.r(G)p.r(A)p.r(C)p.r(G)p.r(U)p.r(U)p.r(C)p.r(A)p.r(G)p.r(G)p.r(U)p.m(U)p.r(A)p.r(U)p.r(U)p.r(C)p.r(T)p.r(T)}$$$RNA1{StrandType:ss}|RNA2{StrandType:as}$", "%", 55],
  ["RNA1{d(G)p.d(C)p.d(A)p.d(G)p.d(C)p.d(A)p.d(C)p.d(G)p.d(A)p.d(C)p.d(U)p.d(U)p.d(C)p.d(U)p.d(U)p.d(C)p.d(A)p.d(A)p.d(G)p.r(T)p.r(T)}|RNA2{d(C)p.d(U)p.d(U)p.d(G)p.d(A)p.d(A)p.d(G)p.d(A)p.d(A)p.d(G)p.d(U)p.d(C)p.d(G)p.d(U)p.d(G)p.d(C)p.d(U)p.d(G)p.d(C)p.r(T)p.r(T)}$$$RNA1{StrandType:ss}|RNA2{StrandType:as}$", "%", 0],
  ["RNA1{m(C)p.r(C)p.m(G)p.r(C)p.m(C)p.r(C)p.m(G)p.r(G)p.m(C)p.r(G)p.m(G)p.r(C)p.m(G)p.r(C)p.m(C)p.r(U)p.m(U)p.r(U)p.m(A)p.r(T)p.r(T)}|RNA2{r(U)p.r(A)p.r(A)p.r(A)p.r(G)p.r(G)p.r(C)p.r(G)p.r(C)p.r(C)p.r(G)p.r(C)p.r(C)p.r(G)p.r(G)p.r(G)p.r(C)p.r(G)p.r(G)p.r(T)p.r(T)}$$$RNA1{StrandType:ss}|RNA2{StrandType:as}$", "%", 49]
]}
